Data origin, for the record: PubChem BioAssay (NCI)

- Tested on: RXF 393 renal
- ASSAY REMARKS: NCI tumour cell line growth inhibition, 48 h; in the data active = GI50 below about 0.43 µM; inactive = the rest
Answer with one of the outcomes YES (active), NO (inactive)

-- ask I would be grateful if you could indicate the recorded call for "CCN(CC)c1ccc2nc3ccc(N=Nc4ccc(O)cc4)cc3[n+](-c3ccccc3)c2c1" .
-- reply NO

-- ask I would be grateful if you could indicate the recorded call for "COc1cc(Nc2ncnc(Nc3ccc4c(n3)NC(=O)C(C)(C)O4)n2)cc(OC)c1OC" .
-- reply YES

-- ask I would be grateful if you could indicate the recorded call for "CC(=O)O[C@H](C[C@H](C(C)C)N(C)C(=O)[C@@H](NC(=O)[C@H]1CCCCN1C)C(C)C)c1cccc(C(=O)N[C@@H](Cc2ccccc2)C[C@H](C)C(=O)O)n1" .
-- reply YES

-- ask I would be grateful if you could indicate the recorded call for "O=C(CN(/C=C/C(=O)C(F)(F)F)c1ccccc1)c1ccc(Cl)cc1" .
-- reply NO

-- ask I would be grateful if you could indicate the recorded call for "C=C(CN1c2ccccc2Sc2ccccc21)c1ccc(C(=O)Nc2ccccc2N)cc1" .
-- reply NO

-- ask I would be grateful if you could indicate the recorded call for COc1cc(CN(c2ccc(C)cc2)C2OC(=O)c3ccccc32)cc(OC)c1OC (configuration not stated) .
-- reply YES

-- ask I would be grateful if you could indicate the recorded call for "CCC[CH2][Sn]([CH2]CCC)([O]C(=O)c1cccc(F)c1F)[O]C(=O)c1cccc(F)c1F" .
-- reply YES
